Recorded values, source ChEMBL document CHEMBL1135286.

Target: Transient receptor potential cation channel subfamily V member 1 (Homo sapiens, UniProt Q8NER1)
Sequence (Q8NER1 whole entry): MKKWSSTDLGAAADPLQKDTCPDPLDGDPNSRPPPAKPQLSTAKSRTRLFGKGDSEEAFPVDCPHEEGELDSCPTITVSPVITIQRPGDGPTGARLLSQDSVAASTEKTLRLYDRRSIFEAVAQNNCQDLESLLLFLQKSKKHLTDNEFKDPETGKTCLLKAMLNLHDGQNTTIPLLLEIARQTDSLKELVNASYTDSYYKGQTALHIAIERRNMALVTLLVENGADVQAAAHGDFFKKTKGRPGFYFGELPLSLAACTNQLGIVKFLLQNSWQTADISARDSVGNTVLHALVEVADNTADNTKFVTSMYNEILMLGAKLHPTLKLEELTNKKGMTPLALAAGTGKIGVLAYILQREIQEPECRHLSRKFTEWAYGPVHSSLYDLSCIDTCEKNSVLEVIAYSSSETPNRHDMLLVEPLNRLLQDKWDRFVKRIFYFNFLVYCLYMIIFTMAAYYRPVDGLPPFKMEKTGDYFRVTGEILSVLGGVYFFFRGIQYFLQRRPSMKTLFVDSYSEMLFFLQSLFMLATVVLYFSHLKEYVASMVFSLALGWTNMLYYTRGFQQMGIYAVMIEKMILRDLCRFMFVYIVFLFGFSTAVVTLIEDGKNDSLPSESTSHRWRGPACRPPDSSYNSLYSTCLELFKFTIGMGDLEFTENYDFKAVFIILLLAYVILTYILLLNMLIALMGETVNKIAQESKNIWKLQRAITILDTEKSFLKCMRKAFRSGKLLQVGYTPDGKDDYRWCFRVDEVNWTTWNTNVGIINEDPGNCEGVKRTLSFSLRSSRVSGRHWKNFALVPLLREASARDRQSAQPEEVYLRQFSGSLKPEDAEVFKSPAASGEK
Assay: Induced [Ca2+] influx in Vanilloid receptor subtype 1 expressing HEK 293 cells
pIC50: −log10 of the molar value.

| compound | pIC50 |
| --- | --- |
| C=C(C)[C@]12C[C@@H](C)[C@@]34OC(Cc5ccccc5)(O[C@@H]1[C@@H]3C=C(COC(=O)Cc1ccc(O)c(OC)c1I)C[C@]1(O)C(=O)C(C)=C[C@@H]41)O2 | 7.57 |

---

Biological target: Transient receptor potential cation channel subfamily V member 1 (Homo sapiens, UniProt Q8NER1)
pKi: −log10 of the molar value.
The molecules listed here are annotated with their pKi.

| molecule | pKi |
| --- | --- |
| C=C(C)[C@]12C[C@@H](C)[C@@]34O[C@](Cc5ccccc5)(O[C@@H]1[C@@H]3C=C(COC(=O)Cc1cc(OC)c(O)cc1I)C[C@]1(O)C(=O)C(C)=C[C@@H]41)O2 | 9.15 |
| C=C(C)[C@]12C[C@@H](C)[C@@]34O[C@](Cc5ccccc5)(O[C@@H]1[C@@H]3C=C(COC(=O)Cc1ccc(O)c(OC)c1)C[C@]1(O)C(=O)C(C)=CC41)O2 (single isomer, unassigned) [RESINIFERATOXIN] | 9.32 |
| C=C(C)[C@]12C[C@@H](C)[C@@]34OC(Cc5ccccc5)(O[C@@H]1[C@@H]3C=C(COC(=O)Cc1ccc(O)c(OC)c1I)C[C@]1(O)C(=O)C(C)=C[C@@H]41)O2 | 8.85 |
| C=C(C)[C@]12C[C@@H](C)[C@@]34O[C@](Cc5ccccc5)(O[C@@H]1[C@@H]3C=C(COC(=O)Cc1cc(OC)c(OC(C)=O)cc1I)C[C@]1(O)C(=O)C(C)=C[C@@H]41)O2 | 8.84 |
